Every entry's value here was drawn from PubChem BioAssay (NCI).

# Tested on: MCF7 breast
# method.description: NCI-60 one-dose screen, 48 h
# test.conditions: 10 µM unless noted
The panel holds about 83,000 compounds, 20% with a hit somewhere; the sample as a whole holds those more often. The source made the active and inactive calls. The calls were made as follows: active = growth percent below 10; inactive = the rest.
Write down the outcome that applies. Available outcomes: 1.0 = active, 0.0 = inactive

Check out these entries, answers already filled in.
| compound | group |
| --- | --- |
| CCCCCCCCCCCC1=NCCCN1CCCC | 0.0 |
| O=C(CBr)c1ccc(OC(=O)c2ccccc2)cc1 | 0.0 |
| Cc1cccc2c(N)c3ccccc3nc12 | 1.0 |

Q: What is the recorded call for this compound in the test? CC1(C)N=c2cc3c(cc2N1c1ccc(Cl)cc1)=Nc1ccccc1N3c1ccc(Cl)cc1
A: 0.0

Q: Next compound up: CN1CCC(CN2c3ccccc3Sc3ccccc32)C1 (stereo unspecified)
A: 0.0

Q: Next compound up: O=C(Nc1cccc(C(F)(F)F)c1)Oc1ccc(Cl)c2cccnc12
A: 0.0
